- target_entity: GCN2 kinase (Homo sapiens)
- Sequence (Q9P2K8 whole entry): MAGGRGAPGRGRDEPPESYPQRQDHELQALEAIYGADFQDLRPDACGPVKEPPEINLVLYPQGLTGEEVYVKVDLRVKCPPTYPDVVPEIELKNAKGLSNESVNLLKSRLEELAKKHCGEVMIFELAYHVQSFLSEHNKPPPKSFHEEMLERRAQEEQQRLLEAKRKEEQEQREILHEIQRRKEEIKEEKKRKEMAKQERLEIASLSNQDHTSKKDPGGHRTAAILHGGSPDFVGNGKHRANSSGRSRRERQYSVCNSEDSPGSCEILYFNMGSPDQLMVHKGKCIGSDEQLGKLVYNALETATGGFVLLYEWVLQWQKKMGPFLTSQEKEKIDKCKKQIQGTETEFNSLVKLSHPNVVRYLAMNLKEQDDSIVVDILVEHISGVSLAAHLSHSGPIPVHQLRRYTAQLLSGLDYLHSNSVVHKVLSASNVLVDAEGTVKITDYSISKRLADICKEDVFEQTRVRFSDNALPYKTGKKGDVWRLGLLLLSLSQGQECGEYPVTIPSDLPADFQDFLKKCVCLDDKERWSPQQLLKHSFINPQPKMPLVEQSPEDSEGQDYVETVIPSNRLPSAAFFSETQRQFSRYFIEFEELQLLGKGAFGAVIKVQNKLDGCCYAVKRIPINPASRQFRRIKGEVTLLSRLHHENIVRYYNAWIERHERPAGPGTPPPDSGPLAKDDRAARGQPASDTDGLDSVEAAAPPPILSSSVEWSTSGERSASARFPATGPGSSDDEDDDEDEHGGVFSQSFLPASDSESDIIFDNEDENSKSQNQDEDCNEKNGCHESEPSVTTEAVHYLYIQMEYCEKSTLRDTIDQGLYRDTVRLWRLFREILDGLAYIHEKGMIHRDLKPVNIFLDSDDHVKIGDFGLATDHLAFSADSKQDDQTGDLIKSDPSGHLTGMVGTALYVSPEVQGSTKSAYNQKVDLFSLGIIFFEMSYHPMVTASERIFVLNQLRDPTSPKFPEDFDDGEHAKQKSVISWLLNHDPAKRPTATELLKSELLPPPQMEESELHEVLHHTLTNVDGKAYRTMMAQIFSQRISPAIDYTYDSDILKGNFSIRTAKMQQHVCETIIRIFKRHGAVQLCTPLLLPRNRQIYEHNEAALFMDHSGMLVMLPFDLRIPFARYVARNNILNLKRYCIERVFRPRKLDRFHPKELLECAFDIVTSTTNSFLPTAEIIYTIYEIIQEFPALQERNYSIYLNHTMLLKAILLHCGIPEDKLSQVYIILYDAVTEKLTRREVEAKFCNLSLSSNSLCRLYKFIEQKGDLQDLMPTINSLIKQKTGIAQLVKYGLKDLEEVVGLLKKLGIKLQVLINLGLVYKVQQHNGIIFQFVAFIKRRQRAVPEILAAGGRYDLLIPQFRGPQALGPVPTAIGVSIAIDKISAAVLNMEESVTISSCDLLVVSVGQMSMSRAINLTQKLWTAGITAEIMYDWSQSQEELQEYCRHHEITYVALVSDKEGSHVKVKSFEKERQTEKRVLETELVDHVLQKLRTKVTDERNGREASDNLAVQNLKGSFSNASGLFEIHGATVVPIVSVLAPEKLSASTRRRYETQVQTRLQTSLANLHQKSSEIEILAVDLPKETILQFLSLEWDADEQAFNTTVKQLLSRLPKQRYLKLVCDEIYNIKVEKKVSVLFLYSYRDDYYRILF
- procedure_text: GCN2 enzyme inhibition assay (Transcreener ADP2 fluorescence polarization)
- Assay type: biochemical
- cond: compounds of Formula II; 280 μM ATP, 4 nM GCN2 kinase
pKi: −log10 of the molar value.
Can you tell me pKi for the items I'm about to list?

Ask: For the compound shown here, CC(=O)N1CCN(c2cc(-c3cnc4ccc(C(F)F)nn34)ncn2)C(C)C1CNS(C)(=O)=O (centres unmarked) [II-515] , give the reported pKi.
Reply: > 8.00

Ask: For the compound shown here, FC(F)c1ccc2ncc(-c3ccnc(N4C[C@@H]5C[C@H]4CN5)c3)n2n1 [II-165] , give the reported pKi.
Reply: 6.00 to 8.00

Ask: For the compound shown here, CS(=O)(=O)NCC1CN(c2cc(-c3cnc4ccc(C(F)F)nn34)ncn2)CCN1 (centres unmarked) [II-450] , give the reported pKi.
Reply: 6.00 to 8.00

Ask: For the compound shown here, O=C1CCN(c2cc(-c3cnc4ccc(Cl)nn34)ccn2)CCN1 [II-187] , give the reported pKi.
Reply: 6.00 to 8.00

Ask: For the compound shown here, CS(=O)(=O)NCC1CCCN(c2cncc(-c3cnc4ccc(C(F)F)nn34)c2)C1 (centres unmarked) [II-87] , give the reported pKi.
Reply: > 8.00

Data credit: patent US10988477B2
